- tested-on: Mucolipin-3 (Homo sapiens)
- experiment-description: human TRPML3 channel agonists, primary screen, cell-based, HEK293 TRPML3-YFP, Fluo-8 calcium fluorescence, 3 µM (AID 1448)
- recorded-conditions: at 3 µM, 100% = the carbachol control signal
The campaign covered roughly 220,000 compounds. About 630 (0.29%) were called active.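 Rule for the calls: active = activation above its plate's cutoff, the mean activation of the plate's test wells plus 3 SD (cut at about 12% in these data); inactive = the rest.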 Many of the other results were omitted from the sample, so actives are more common in it than they were.
Returns: one label drawn from Y (active), N (inactive)

Below, 3 compounds whose answers are already recorded.
compound	qualitative-label
O=C(O)CCC(=O)Nc1nc2ccc([N+](=O)[O-])cc2s1	N
COc1ccc(Cl)cc1N(CC(=O)N/N=C/c1ccc(OCC(N)=O)cc1)S(C)(=O)=O	N
Cc1nn(C)cc1N1C(=O)c2cccc3c(N)ccc(c23)C1=O	Y

We now examine a further compound.
query: Per the records of this test, what outcome belongs to COc1cccc(CC(=O)N2CCCC(CCC(=O)N3CCN(c4ccccn4)CC3)C2)c1 (centres undefined) ?
result: N

###

- tested-on: Mucolipin-3 (Homo sapiens) (UniProt Q8TDD5)
- Sequence (Q8TDD5 whole entry, looked up): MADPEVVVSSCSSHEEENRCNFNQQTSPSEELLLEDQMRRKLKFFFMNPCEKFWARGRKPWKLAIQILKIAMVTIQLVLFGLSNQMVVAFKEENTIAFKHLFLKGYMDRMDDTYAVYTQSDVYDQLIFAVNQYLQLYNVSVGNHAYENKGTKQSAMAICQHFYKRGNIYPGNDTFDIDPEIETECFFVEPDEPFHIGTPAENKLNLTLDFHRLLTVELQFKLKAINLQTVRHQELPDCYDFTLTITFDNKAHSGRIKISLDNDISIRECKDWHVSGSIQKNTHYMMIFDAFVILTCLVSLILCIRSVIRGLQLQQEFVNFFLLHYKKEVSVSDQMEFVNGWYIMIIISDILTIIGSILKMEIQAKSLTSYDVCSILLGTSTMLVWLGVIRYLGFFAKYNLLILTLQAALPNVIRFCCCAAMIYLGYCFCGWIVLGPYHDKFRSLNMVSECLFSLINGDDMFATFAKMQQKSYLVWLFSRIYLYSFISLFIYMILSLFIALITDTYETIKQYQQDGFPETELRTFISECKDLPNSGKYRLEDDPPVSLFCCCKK
- experiment-description: human TRPML3 channel agonists, primary screen, cell-based, HEK293 TRPML3-YFP, Fluo-8 calcium fluorescence, 3 µM (AID 1448)
- recorded-conditions: at 3 µM, 100% = the carbachol control signal
The campaign covered roughly 220,000 compounds. About 630 (0.29%) were called active.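 How the source made its calls: active means activation above its plate's cutoff, the mean activation of the plate's test wells plus 3 SD (cut at about 12% in these data); inactive means the rest.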 The sample holds actives, similar compounds and a random draw of the others, so the mix is not that of the screen.
Returns: one label drawn from active, inactive

Below, 4 molecules whose answers are already recorded.
molecule	qualitative-label
CCN(CC)c1ccc2cc(C(N)=O)/c(=N\NC(=O)c3ccncc3)oc2c1	active
CCCC(=O)Nc1cccc(NC(=S)NC(=O)C(C)Oc2ccc(Cl)cc2Cl)c1 (stereo unspecified)	inactive
COc1ccc(N2C(=O)c3cccc4cccc(c34)C2=O)nn1	inactive
O=C(c1nnc(-c2ccc(Cl)cc2)o1)C1CCCC1	inactive

query: Per the records of this test, what outcome belongs to COCCNc1nc2nonc2nc1N1CCCC1c1nccs1 (stereo unspecified) ?
result: inactive

query: Per the records of this test, what outcome belongs to COc1ccc(C(=O)N/N=c2\oc3ccccc3cc2C(N)=O)cc1 ?
result: inactive

###

Each entry below carries its recorded activation.
- tested-on: Mucolipin-3 (Homo sapiens)
- experiment-description: human TRPML3 channel agonists, primary screen, cell-based, HEK293 TRPML3-YFP, Fluo-8 calcium fluorescence, 3 µM (AID 1448)
- recorded-conditions: at 3 µM, stronger effect = higher value, 100% = the carbachol control signal
In all, about 220,000 compounds went through this assay and about 630 (0.29%) were called active. The list comes from a sample in which actives are over-represented; it also holds close analogues and randomly drawn compounds.
Expressed in %, but write only the number.

# annotated cases, reported activation shown
smiles-notation	tested-on	activation (%)
COc1cc2nc(CN(C)Cc3ccc(F)cc3)[nH]c(=O)c2cc1OC	Mucolipin-3 (Homo sapiens)	0.67
Cc1cccc(CSc2ccc(-c3cccs3)nn2)c1	Mucolipin-3 (Homo sapiens)	0.19

--- query ---
query: Please look at this compound and report its activation: O=C(Cc1c(F)cccc1Cl)Nc1ncc([N+](=O)[O-])s1
result: 10.9

###

- tested-on: Mucolipin-3 (Homo sapiens)
- experiment-description: human TRPML3 channel agonists, primary screen, cell-based, HEK293 TRPML3-YFP, Fluo-8 calcium fluorescence, 3 µM (AID 1448)
- recorded-conditions: at 3 µM, stronger effect = higher value, 100% = the carbachol control signal
Screen size: about 220,000 compounds; about 630 (0.29%) were called active. Shown is part of a subset that was picked to be rich in actives.
readout-kind: activation

query: Please look at this compound and report its activation: O=C(CN1CCN(C(=S)NC2CCCC2)CC1)Nc1ccc(Oc2ccccc2)cc1
result: 3.02% (inactive)

query: Please look at this compound and report its activation: COc1ccc(/C=N/NC(=O)C(C)N(c2ccc(OC)cc2)S(C)(=O)=O)cc1 (configuration not stated)
result: 0.53% (inactive)

query: Please look at this compound and report its activation: CC(=O)OC(C)C[N+](C)(C)C (configuration not stated)
result: 78.4% (active)

###

- tested-on: Mucolipin-3 (Homo sapiens) (UniProt Q8TDD5)
- experiment-description: human TRPML3 channel agonists, primary screen, cell-based, HEK293 TRPML3-YFP, Fluo-8 calcium fluorescence, 3 µM (AID 1448)
- recorded-conditions: at 3 µM, 100% = the carbachol control signal
About 630 (0.29%) of roughly 220,000 compounds were called active.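 How the source made its calls: active means activation above its plate's cutoff, the mean activation of the plate's test wells plus 3 SD (cut at about 12% in these data); inactive means the rest.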 The sample holds actives, similar compounds and a random draw of the others, so the mix is not that of the screen.
Returns: one label drawn from true for active, false for inactive

Below, 3 molecules whose answers are already recorded.
molecule	qualitative-label
O=C(Nc1ccc(N2CCN(C(=O)c3ccccc3)CC2)c(Cl)c1)c1ncn[nH]1	false
COc1ccc(OCCCn2cccc2/C=C2/C(=N)N3OC(C)=CC3=NC2=O)cc1	false
COc1ccc(C(=O)NC(=S)NNC(=O)c2c(-c3ccccc3)noc2C)cc1	true

query: Per the records of this test, what outcome belongs to CCN(CC)S(=O)(=O)c1ccc(C)c(NC(=O)COc2ccc(Br)cc2Cl)c1 ?
result: false

query: Per the records of this test, what outcome belongs to CN(C)CCNC(CC(=O)Nc1ccc(Cl)c(Cl)c1)C(=O)O (stereo not drawn) ?
result: false

query: Per the records of this test, what outcome belongs to Cc1ccc(O)c(NC(=S)NC(=O)COc2ccc(Br)cc2)c1 ?
result: true

###

- tested-on: Mucolipin-3 (Homo sapiens)
- experiment-description: human TRPML3 channel agonists, primary screen, cell-based, HEK293 TRPML3-YFP, Fluo-8 calcium fluorescence, 3 µM (AID 1448)
- recorded-conditions: at 3 µM, 100% = the carbachol control signal
Screen size: about 220,000 compounds; about 630 (0.29%) were called active.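 How the source made its calls: active means activation above its plate's cutoff, the mean activation of the plate's test wells plus 3 SD (cut at about 12% in these data); inactive means the rest.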 The sample as a whole holds a higher share of actives than the screen did.
Returns: one label drawn from class 1 for active, class 0 for inactive

Below, 3 compounds whose answers are already recorded.
compound	qualitative-label
COc1cc(OC)cc(C(=O)N[C@H](C(=O)OCC(=O)NC(C)c2ccccc2)C(C)C)c1 (some centres undefined)	class 1
O=S(=O)(Nc1cc(S(=O)(=O)N2CCOCC2)ccc1N1CCCC1)c1cccs1	class 0
O=S(=O)(Nc1ccccc1N1CCOCC1)c1ccc(Cl)s1	class 1

query: Per the records of this test, what outcome belongs to O=C(CSc1nnc2ccc(-c3ccncc3)nn12)N1CCCCC1 ?
result: class 0

###

- tested-on: Mucolipin-3 (Homo sapiens) (UniProt Q8TDD5)
- experiment-description: human TRPML3 channel agonists, primary screen, cell-based, HEK293 TRPML3-YFP, Fluo-8 calcium fluorescence, 3 µM (AID 1448)
- recorded-conditions: at 3 µM, 100% = the carbachol control signal
The whole screen tested about 220,000 compounds, of which about 630 (0.29%) were called active.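 The calls were made as follows: active = activation above its plate's cutoff, the mean activation of the plate's test wells plus 3 SD (cut at about 12% in these data); inactive = the rest.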 The full list was thinned out, with actives kept by preference.
Returns: one label drawn from Yes (active), No (inactive)

Below, 2 molecules whose answers are already recorded.
smiles-notation	qualitative-label
CCOc1ccc(Br)cc1S(=O)(=O)N1CCC(C(=O)O)CC1	No
O=C(Nc1ccc(S(=O)(=O)Nc2nccs2)cc1)c1cc(-c2ccncc2)nc2ccccc12	No

query: Per the records of this test, what outcome belongs to CC1=CC(C)(C)N(C(=O)CSc2nnc(-c3ccccc3)o2)c2ccc(C)cc21 ?
result: Yes

query: Per the records of this test, what outcome belongs to O=C(CSc1nnc(-c2ccccc2)o1)N1CCOCC1 ?
result: No

query: Per the records of this test, what outcome belongs to Cc1cs/c(=N\N=C\c2ccc(O)cc2)n1Cc1ccco1 ?
result: No

query: Per the records of this test, what outcome belongs to C=C(C)Cn1c(C)cc(C)c(S(=O)(=O)c2ccccc2C)c1=O ?
result: Yes

query: Per the records of this test, what outcome belongs to Cc1nc(COc2cccc(Cl)c2)sc1C(=O)/C=C/N(C)C ?
result: No
